Molecular target: MyD88^TIR (Homo sapiens, UniProt Q99836)
Construct: MyD88 (residues 148–296); 6xHis; made in house; host or cells: E. coli BL21 (DE3)
Sequence (Q99836 148-296): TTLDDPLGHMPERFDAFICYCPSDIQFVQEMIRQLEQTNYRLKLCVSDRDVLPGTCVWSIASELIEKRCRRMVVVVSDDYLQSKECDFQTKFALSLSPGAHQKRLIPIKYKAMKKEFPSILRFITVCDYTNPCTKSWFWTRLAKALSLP
Test: T‐Surf phage library (P8 and P3) selection against MyD88^TIR, four rounds, NGS read counts
Assay type: binding
Conditions: P3 library, selection against MyD88, rank by count before grouping
Records here are stratified by P3_MyD88 Rank (before); strata: bucket A (below 2000), bucket B (2000 to below 3000), bucket C (3000 or more)

QUERY: Please classify: `YTALTNMSFHTFRDNY`
RESULT: bucket A

QUERY: Please classify: `SSFRKGVWRVRKLSKK`
RESULT: bucket C

QUERY: Please classify: `QQVVRYRLEIVRVTKL`
RESULT: bucket B

QUERY: Please classify: `YLKWGYPRFWDRLRFV`
RESULT: bucket A

QUERY: Please classify: `NELIDVGHSYSMHRGG`
RESULT: bucket C

QUERY: Please classify: `LVAHEISKKLKIFATM`
RESULT: bucket B

QUERY: Please classify: `EWIREQLHPALNERLP`
RESULT: bucket B

QUERY: Please classify: `GEDTRLPLPAICMRP`
RESULT: bucket A

QUERY: Please classify: `NQGRNALTAAADLSGW`
RESULT: bucket C

###

Target: MAL^TIR (Homo sapiens)
Construct: MAL (residues 79–221); 6xHis; made in house; host or cells: E. coli BL21 (DE3)
Sequence (P58753 79-221): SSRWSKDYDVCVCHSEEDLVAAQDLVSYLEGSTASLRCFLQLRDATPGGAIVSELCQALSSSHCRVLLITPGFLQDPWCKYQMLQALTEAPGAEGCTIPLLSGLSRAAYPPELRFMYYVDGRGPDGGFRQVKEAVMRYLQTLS
Experiment: T‐Surf phage library (P8 and P3) selection against MAL^TIR, four rounds, NGS read counts
Type: binding
Settings: P8 library, 4R selection against MAL, rank before grouping
Record satisfied whenever P8_MAL Rank (before) is at 2000 or higher; record not satisfied when lower.

QUERY: Test whether the sequence `RNNYIGHLYQALYRNG` records P8_MAL Rank (before) of 2000 or higher.
RESULT: satisfied

QUERY: Test whether the sequence `LVFWESLKHLLRSDDR` records P8_MAL Rank (before) of 2000 or higher.
RESULT: satisfied

QUERY: Test whether the sequence `WFYDRLVRLILRDTKV` records P8_MAL Rank (before) of 2000 or higher.
RESULT: not satisfied

QUERY: Test whether the sequence `AFFWERLRPVLRKPTR` records P8_MAL Rank (before) of 2000 or higher.
RESULT: not satisfied

QUERY: Test whether the sequence `VFFWAQLKKVLRNPTR` records P8_MAL Rank (before) of 2000 or higher.
RESULT: not satisfied

QUERY: Test whether the sequence `WFYKPLVSLILRDTKA` records P8_MAL Rank (before) of 2000 or higher.
RESULT: not satisfied

QUERY: Test whether the sequence `AFFWEQLRTVLRTPTL` records P8_MAL Rank (before) of 2000 or higher.
RESULT: not satisfied

QUERY: Test whether the sequence `KLFWEKLKLFLPSLSR` records P8_MAL Rank (before) of 2000 or higher.
RESULT: satisfied

QUERY: Test whether the sequence `SEFIQKIILWMNLKNQ` records P8_MAL Rank (before) of 2000 or higher.
RESULT: satisfied

###

Molecular target: MAL^TIR (Homo sapiens)
Construct: MAL (residues 79–221); 6xHis; made in house; host or cells: E. coli BL21 (DE3)
Assay: T‐Surf phage library (P8 and P3) selection against MAL^TIR, four rounds, NGS read counts
Type: binding
Settings: P3 library, selection against MAL, rank after grouping
Record form. Attribute: P3_MAL Rank (after). Fill in for each entry.

QUERY: # get_value(readout='P3_MAL Rank (after)', item= `HQASWNRLWEQLKPRT` )
RESULT: 505

QUERY: # get_value(readout='P3_MAL Rank (after)', item= `MSHLYQGLNNRGIFIF` )
RESULT: 527

QUERY: # get_value(readout='P3_MAL Rank (after)', item= `KELEKYQLAILERDFQ` )
RESULT: 489

QUERY: # get_value(readout='P3_MAL Rank (after)', item= `NQWRNALTAAAKLSGG` )
RESULT: 564

QUERY: # get_value(readout='P3_MAL Rank (after)', item= `YAFTGHLHRYLVRRSA` )
RESULT: 561

QUERY: # get_value(readout='P3_MAL Rank (after)', item= `SSFREDLWRLRERSKQ` )
RESULT: 491

QUERY: # get_value(readout='P3_MAL Rank (after)', item= `RLWDRLRYLMPRNNHH` )
RESULT: 571

QUERY: # get_value(readout='P3_MAL Rank (after)', item= `PDKDKGGENAFINNIV` )
RESULT: 488

QUERY: # get_value(readout='P3_MAL Rank (after)', item= `NLWRNALTVAANLSGW` )
RESULT: 540

QUERY: # get_value(readout='P3_MAL Rank (after)', item= `DSQSSRFKDDADLVG` )
RESULT: 511

QUERY: # get_value(readout='P3_MAL Rank (after)', item= `YTALTNSGFHTFREM` )
RESULT: 500

QUERY: # get_value(readout='P3_MAL Rank (after)', item= `FMSHLYQGLKIVAFL` )
RESULT: 523

QUERY: # get_value(readout='P3_MAL Rank (after)', item= `KEVEGWRDALAKVASP` )
RESULT: 576

QUERY: # get_value(readout='P3_MAL Rank (after)', item= `SFFWNKLRYHLQAKDH` )
RESULT: 572

QUERY: # get_value(readout='P3_MAL Rank (after)', item= `HHNGSYCEALAEHKER` )
RESULT: 486

QUERY: # get_value(readout='P3_MAL Rank (after)', item= `KMKYWKDALYDASNLS` )
RESULT: 510

QUERY: # get_value(readout='P3_MAL Rank (after)', item= `YAFTGHLHRYLVQRGVHGGD` )
RESULT: 560

QUERY: # get_value(readout='P3_MAL Rank (after)', item= `YAFTGYLHRYVVQRGV` )
RESULT: 519
